# assay-info: Pharmacokinetic parameter in Male Wistar rats at 10 mg/kg oral administration.
# Type: ADME, organism-based
# Design: dose 10 mg/kg, route oral
# measurement-setup: rat, in vivo
measure: half-life (h)
The reply should be a number in h, with the unit left off.

response.value for `CCO[C@@H](Cc1ccc(OCCN2c3ccccc3Oc3ccccc32)cc1)C(=O)O` (field: half-life) = 2.81

---

# assay-info: Pharmacokinetic parameter in Male Wistar rats at 10 mg/kg oral administration.
# Format: ADME, organism-based
# Design: dose 10 mg/kg, route oral
# measurement-setup: rat, in vivo
measure: Cmax (ng/mL)
The reply should be a number in ng/mL, with the unit left off.

response.value for `CCO[C@@H](Cc1ccc(OCCN2c3ccccc3Oc3ccccc32)cc1)C(=O)O` (field: Cmax) = 17200
